assay-name: in vivo
condition-label: BALB/c nude, mouse, in vivo, iv, total radioactivity, % ID/g Femur
Listed next: entries and their corresponding tissue uptake at 4 h.
Return type: number; implicit unit %ID/g.

Would you please look over these solved cases?
CC(C)(C)C(=O)CN1C(=O)[C@H](NC(=O)Nc2cccc(C(=O)N[C@@H](CCC(=O)N[C@@H](CCC(=O)N[C@@H](CCC(=O)N[C@@H](CCCCNC(=O)COCCOCCNC(=O)COCCOCCNC(=O)CCC(C(=O)O)N3CCN(CC(=O)O)CCN(CC(=O)O)CCN(CC(=O)O)CC3)C(N)=O)C(=O)O)C(=O)O)C(=O)O)c2)CN(C2CCCCC2)c2ccccc21 (stereo partly shown) [^177Lu-C-4, metal not drawn, reference compound]; 0.04
C[C@@H](O)[C@H](NC(=O)[C@@H]1CSSC[C@H](NC(=O)[C@@H](Cc2ccccc2)NC(=O)[C@H](CCCCNC(=O)c2cccc(NC(=O)N[C@@H]3CN(C4CCCCC4)c4ccccc4N(CC(=O)C(C)(C)C)C3=O)c2)NC(=O)COCCOCCNC(=O)CN2CCN(CC(=O)O)CCN(CC(=O)O)CCN(CC(=O)O)CC2)C(=O)N[C@@H](Cc2ccc(O)cc2)C(=O)N[C@H](Cc2c[nH]c3ccccc23)C(=O)N[C@@H](CCCCN)C(=O)N[C@@H]([C@@H](C)O)C(=O)N1)C(=O)O [^177Lu-I-35, metal not drawn]; 1.01
CCCC[C@H](NC(=O)[C@H](Cc1c[nH]c2ccccc12)NC(=O)CNC(=O)[C@H](Cc1ccc(O)cc1)NC(=O)[C@H](C)NC(=O)[C@@H](CCC(=O)O)NC(=O)[C@@H](CCC(=O)O)NC(=O)[C@@H](CCC(=O)O)NC(=O)[C@@H](CCC(=O)O)NC(=O)[C@@H](CCC(=O)O)NC(=O)[C@@H](CCC(=O)O)NC(=O)CN1CCN(CC(=O)O)CCN(CC(=O)O)CCN(CC(=O)O)CC1)C(=O)N[C@@H](CC(=O)O)C(=O)N[C@@H](Cc1ccccc1)C(N)=O [^177Lu-C-2, metal not drawn, reference compound]; 0.12

Recorded tissue uptake at 4 h (compound C[C@@H](O)[C@H](NC(=O)[C@@H]1CSSC[C@H](NC(=O)[C@@H](Cc2ccccc2)NC(=O)COCCOCCNC(=O)COCCOCCNC(=O)[C@H](CCCCNC(=O)c2cccc(NC(=O)N[C@@H]3CN(C4CCCCC4)c4ccccc4N(CC(=O)C(C)(C)C)C3=O)c2)NC(=O)CN2CCN(CC(=O)O)CCN(CC(=O)O)CCN(CC(=O)O)CC2)C(=O)N[C@@H](Cc2ccc(O)cc2)C(=O)N[C@H](Cc2c[nH]c3ccccc23)C(=O)N[C@@H](CCCCN)C(=O)N[C@@H]([C@@H](C)O)C(=O)N1)C(=O)O [Compound 177Lu-I-39, metal not drawn] ): 0.9

Recorded tissue uptake at 4 h (compound C[C@@H](O)[C@H](NC(=O)[C@@H]1CSSC[C@H](NC(=O)[C@@H](Cc2ccccc2)NC(=O)COCCOCCNC(=O)[C@H](CCCCNC(=O)c2cccc(NC(=O)N[C@@H]3CN(C4CCCCC4)c4ccccc4N(CC(=O)C(C)(C)C)C3=O)c2)NC(=O)CN2CCN(CC(=O)O)CCN(CC(=O)O)CCN(CC(=O)O)CC2)C(=O)N[C@@H](Cc2ccc(O)cc2)C(=O)N[C@H](Cc2c[nH]c3ccccc23)C(=O)N[C@@H](CCCCN)C(=O)N[C@@H]([C@@H](C)O)C(=O)N1)C(=O)O [Compound 177Lu-I-37, metal not drawn] ): 0.83

Recorded tissue uptake at 4 h (compound C[C@@H](O)[C@H](NC(=O)[C@@H]1CSSC[C@H](NC(=O)[C@@H](Cc2ccccc2)NC(=O)CN2CCN(CC(=O)O)CCN(CC(=O)O)CCN(CC(=O)O)CC2)C(=O)N[C@@H](Cc2ccc(O)cc2)C(=O)N[C@H](Cc2c[nH]c3ccccc23)C(=O)N[C@@H](CCCCN)C(=O)N[C@@H]([C@@H](C)O)C(=O)N1)C(=O)O [^177Lu-C-1, metal not drawn, reference compound] ): 0.07

Recorded tissue uptake at 4 h (compound C[C@@H](O)[C@H](NC(=O)[C@@H]1CSSC[C@H](NC(=O)[C@@H](Cc2ccccc2)NC(=O)[C@H](CCCCNC(=O)COCCOCCNC(=O)c2cccc(NC(=O)N[C@@H]3CN(C4CCCCC4)c4ccccc4N(CC(=O)C(C)(C)C)C3=O)c2)NC(=O)CN2CCN(CC(=O)O)CCN(CC(=O)O)CCN(CC(=O)O)CC2)C(=O)N[C@@H](Cc2ccc(O)cc2)C(=O)N[C@H](Cc2c[nH]c3ccccc23)C(=O)N[C@@H](CCCCN)C(=O)N[C@@H]([C@@H](C)O)C(=O)N1)C(=O)O [^177Lu-I-36, metal not drawn] ): 0.79

Data provenance is patent US20260248972A1.
